Biological target: HIV-1 92RW020 Env (HIV-1)
Assay: cell-based or functional assay
measurement_label: IC50, TZM-bl pseudovirus neutralization (µg/mL)
One number for each entry, in µg/mL.

Any idea what its IC50, TZM-bl pseudovirus neutralization is? The binder is 1469_M23 (PG16) (TCN-118) (antibody, V domains shown) VH: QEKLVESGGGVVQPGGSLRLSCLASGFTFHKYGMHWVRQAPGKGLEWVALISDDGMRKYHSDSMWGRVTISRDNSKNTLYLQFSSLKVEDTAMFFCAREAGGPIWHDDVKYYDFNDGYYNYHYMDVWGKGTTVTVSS VL: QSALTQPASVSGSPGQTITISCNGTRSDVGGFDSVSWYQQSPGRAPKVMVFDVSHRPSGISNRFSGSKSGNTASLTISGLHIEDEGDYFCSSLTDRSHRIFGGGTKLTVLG
0.05

Source: patent US20160264649A1
